// values below are reported MIC
system: Streptococcus Group D X66; assay: agar-dilution MIC; assay type: cell-based
State the result as a value with its unit after it.

| Molecule | Study Target | Observed Value |
| --- | --- | --- |
| CCCCCCCCC(=O)N[C@@H](Cc1ccccc1)C(=O)N[C@@H](Cc1c[nH]c2ccccc12)C(=O)N[C@H](CC(N)=O)C(=O)N[C@@H](CC(=O)O)C(=O)N[C@@H]1C(=O)NCC(=O)N[C@@H](CCCN)C(=O)N[C@@H](CC(=O)O)C(=O)N[C@H](C)C(=O)N[C@@H](CC(=O)O)C(=O)NCC(=O)N[C@H](CO)C(=O)N[C@@H]([C@H](C)CC(=O)O)C(=O)N[C@@H](CC(=O)c2ccccc2N)C(=O)O[C@@H]1C | Streptococcus Group D X66 | 32 µg/mL |
| CCCCCC(=O)N[C@@H](Cc1c[nH]c2ccccc12)C(=O)NCCC[C@@H]1NC(=O)CNC(=O)[C@@H](NC(=O)[C@H](CC(=O)O)NC(=O)[C@@H](CC(N)=O)NC(=O)[C@H](Cc2c[nH]c3ccccc23)NC(=O)CCCCCCCCC(C)CC)[C@@H](C)OC(=O)[C@H](CC(=O)c2ccccc2N)NC(=O)[C@H]([C@H](C)CC(=O)O)NC(=O)[C@@H](CO)NC(=O)CNC(=O)[C@H](CC(=O)O)NC(=O)[C@@H](C)NC(=O)[C@H](CC(=O)O)NC1=O (stereo partly shown) | Streptococcus Group D X66 | 8 µg/mL |
| CCCCCCCCCCCCC(=O)N[C@@H](Cc1ccccc1)C(=O)N[C@@H](Cc1c[nH]c2ccccc12)C(=O)N[C@H](CC(N)=O)C(=O)N[C@@H](CC(=O)O)C(=O)N[C@@H]1C(=O)NCC(=O)N[C@@H](CCCN)C(=O)N[C@@H](CC(=O)O)C(=O)N[C@H](C)C(=O)N[C@@H](CC(=O)O)C(=O)NCC(=O)N[C@H](CO)C(=O)N[C@@H]([C@H](C)CC(=O)O)C(=O)N[C@@H](CC(=O)c2ccccc2N)C(=O)O[C@@H]1C | Streptococcus Group D X66 | 1 µg/mL |

Turning now to a further record.
Query string: Fill in the blank: the reported MIC of CCCCCCCCCC(=O)N[C@@H](Cc1ccccc1)C(=O)N[C@@H](Cc1c[nH]c2ccccc12)C(=O)N[C@H](CC(N)=O)C(=O)N[C@@H](CC(=O)O)C(=O)N[C@@H]1C(=O)NCC(=O)N[C@@H](CCCN)C(=O)N[C@@H](CC(=O)O)C(=O)N[C@H](C)C(=O)N[C@@H](CC(=O)O)C(=O)NCC(=O)N[C@H](CO)C(=O)N[C@@H]([C@H](C)CC(=O)O)C(=O)N[C@@H](CC(=O)c2ccccc2N)C(=O)O[C@@H]1C is ____.
Result string: 8 µg/mL

----------
test system: Streptococcus pyogenes C203; test: agar-dilution MIC; type: cell-based
Value Type: MIC (µg/mL)
Please state the figure in µg/mL; there is no need to write the unit.

Solved cases below.
| Compound | Study Target | Observed Value |
| --- | --- | --- |
| CCCCCCCCCCCC(=O)Nc1cccc(C(=O)N[C@@H](Cc2c[nH]c3ccccc23)C(=O)N[C@H](CC(N)=O)C(=O)N[C@@H](CC(=O)O)C(=O)N[C@@H]2C(=O)NCC(=O)N[C@@H](CCCN)C(=O)N[C@@H](CC(=O)O)C(=O)N[C@H](C)C(=O)N[C@@H](CC(=O)O)C(=O)NCC(=O)N[C@H](CO)C(=O)N[C@@H]([C@H](C)CC(=O)O)C(=O)N[C@@H](CC(=O)c3ccccc3N)C(=O)O[C@@H]2C)c1 [Compound 5] | Streptococcus pyogenes C203 | 0.25 |
| CCCCCCCCCCCC(=O)N[C@@H](Cc1c[nH]c2ccccc12)C(=O)N[C@@H](Cc1c[nH]c2ccccc12)C(=O)N[C@H](CC(N)=O)C(=O)N[C@@H](CC(=O)O)C(=O)N[C@@H]1C(=O)NCC(=O)N[C@@H](CCCN)C(=O)N[C@@H](CC(=O)O)C(=O)N[C@H](C)C(=O)N[C@@H](CC(=O)O)C(=O)NCC(=O)N[C@H](CO)C(=O)N[C@@H]([C@H](C)CC(=O)O)C(=O)N[C@@H](CC(=O)c2ccccc2N)C(=O)O[C@@H]1C [Compound 24] | Streptococcus pyogenes C203 | 2 |
| CCC(C)CCCCCCC(=O)N[C@@H](Cc1c[nH]c2ccccc12)C(=O)N[C@@H](CC(N)=O)C(=O)N[C@@H](CC(=O)O)C(=O)N[C@@H]1C(=O)NCC(=O)N[C@@H](CCCNC(=O)CCC(=O)O)C(=O)N[C@@H](CC(=O)O)C(=O)N[C@H](C)C(=O)N[C@@H](CC(=O)O)C(=O)NCC(=O)N[C@H](CO)C(=O)N[C@@H]([C@H](C)CC(=O)O)C(=O)N[C@@H](CC(=O)c2ccccc2N)C(=O)O[C@@H]1C (stereo partly shown) [Compound 15] | Streptococcus pyogenes C203 | 1 |

Turning now to a further record.
Query string: Fill in the blank: the reported MIC of CCCCCCCCCC(=O)N[C@@H](Cc1c[nH]c2ccccc12)C(=O)N[C@@H](CC(N)=O)C(=O)N[C@@H](CC(=O)O)C(=O)N[C@@H]1C(=O)NCC(=O)N[C@@H](CCCN)C(=O)N[C@@H](CC(=O)O)C(=O)N[C@H](C)C(=O)N[C@@H](CC(=O)O)C(=O)NCC(=O)N[C@H](CO)C(=O)N[C@@H]([C@H](C)CC(=O)O)C(=O)N[C@@H](CC(=O)c2ccccc2N)C(=O)O[C@@H]1C [Compound 6] is ____.
Result string: 0.5

----------
tested on: Streptococcus Group D X66; assay: agar-dilution MIC; type: cell-based
Value Type: MIC (µg/mL)
Please state the figure in µg/mL; there is no need to write the unit.

Solved cases below.
| Compound | Value Type | Unit Label | Observed Value |
| --- | --- | --- | --- |
| CCCCCCCCCCCC(=O)NCCCCC(=O)N[C@@H](Cc1c[nH]c2ccccc12)C(=O)N[C@H](CC(N)=O)C(=O)N[C@@H](CC(=O)O)C(=O)N[C@@H]1C(=O)NCC(=O)N[C@@H](CCCN)C(=O)N[C@@H](CC(=O)O)C(=O)N[C@H](C)C(=O)N[C@@H](CC(=O)O)C(=O)NCC(=O)N[C@H](CO)C(=O)N[C@@H]([C@H](C)CC(=O)O)C(=O)N[C@@H](CC(=O)c2ccccc2N)C(=O)O[C@@H]1C | MIC | µg/mL | 32 |
| CCCCCCCCCC(=O)N[C@@H](Cc1c[nH]c2ccccc12)C(=O)N[C@@H](CC(N)=O)C(=O)N[C@@H](CC(=O)O)C(=O)N[C@@H]1C(=O)NCC(=O)N[C@@H](CCCN)C(=O)N[C@@H](CC(=O)O)C(=O)N[C@H](C)C(=O)N[C@@H](CC(=O)O)C(=O)NCC(=O)N[C@H](CO)C(=O)N[C@@H]([C@H](C)CC(=O)O)C(=O)N[C@@H](CC(=O)c2ccccc2N)C(=O)O[C@@H]1C | MIC | µg/mL | 16 |

Turning now to a further record.
Query string: # get_value(readout= MIC, system= Streptococcus Group D X66) for CCC(C)CCCCCCC(=O)N[C@@H](Cc1c[nH]c2ccccc12)C(=O)N[C@@H](CC(N)=O)C(=O)N[C@@H](CC(=O)O)C(=O)N[C@@H]1C(=O)NCC(=O)N[C@@H](CCCNC(=O)CCC(=O)O)C(=O)N[C@@H](CC(=O)O)C(=O)N[C@H](C)C(=O)N[C@@H](CC(=O)O)C(=O)NCC(=O)N[C@H](CO)C(=O)N[C@@H]([C@H](C)CC(=O)O)C(=O)N[C@@H](CC(=O)c2ccccc2N)C(=O)O[C@@H]1C (stereo partly drawn)
Result string: 4

----------
// values below are reported MIC
tested on: Streptococcus Group D X66; assay: agar-dilution MIC; type: cell-based
Please state the figure in µg/mL; there is no need to write the unit.

Solved cases below.
| Compound | Unit Label | MIC |
| --- | --- | --- |
| CCCCCCCCCCCC(=O)N[C@H](Cc1ccccc1)C(=O)N[C@@H](Cc1c[nH]c2ccccc12)C(=O)N[C@H](CC(N)=O)C(=O)N[C@@H](CC(=O)O)C(=O)N[C@@H]1C(=O)NCC(=O)N[C@@H](CCCN)C(=O)N[C@@H](CC(=O)O)C(=O)N[C@H](C)C(=O)N[C@@H](CC(=O)O)C(=O)NCC(=O)N[C@H](CO)C(=O)N[C@@H]([C@H](C)CC(=O)O)C(=O)N[C@@H](CC(=O)c2ccccc2N)C(=O)O[C@@H]1C | µg/mL | 1 |
| CCCCCCCCCCCC(=O)NCCCCCCCCCCC(=O)N[C@@H](Cc1c[nH]c2ccccc12)C(=O)N[C@H](CC(N)=O)C(=O)N[C@@H](CC(=O)O)C(=O)N[C@@H]1C(=O)NCC(=O)N[C@@H](CCCN)C(=O)N[C@@H](CC(=O)O)C(=O)N[C@H](C)C(=O)N[C@@H](CC(=O)O)C(=O)NCC(=O)N[C@H](CO)C(=O)N[C@@H]([C@H](C)CC(=O)O)C(=O)N[C@@H](CC(=O)c2ccccc2N)C(=O)O[C@@H]1C | µg/mL | 8 |
| CCCCCCCCCCCC(=O)Nc1cccc(C(=O)N[C@@H](Cc2c[nH]c3ccccc23)C(=O)N[C@H](CC(N)=O)C(=O)N[C@@H](CC(=O)O)C(=O)N[C@@H]2C(=O)NCC(=O)N[C@@H](CCCN)C(=O)N[C@@H](CC(=O)O)C(=O)N[C@H](C)C(=O)N[C@@H](CC(=O)O)C(=O)NCC(=O)N[C@H](CO)C(=O)N[C@@H]([C@H](C)CC(=O)O)C(=O)N[C@@H](CC(=O)c3ccccc3N)C(=O)O[C@@H]2C)c1 | µg/mL | 4 |
| CCCCCCCCCCCC(=O)N[C@@H](Cc1c[nH]c2ccccc12)C(=O)N[C@@H](Cc1c[nH]c2ccccc12)C(=O)N[C@H](CC(N)=O)C(=O)N[C@@H](CC(=O)O)C(=O)N[C@@H]1C(=O)NCC(=O)N[C@@H](CCCN)C(=O)N[C@@H](CC(=O)O)C(=O)N[C@H](C)C(=O)N[C@@H](CC(=O)O)C(=O)NCC(=O)N[C@H](CO)C(=O)N[C@@H]([C@H](C)CC(=O)O)C(=O)N[C@@H](CC(=O)c2ccccc2N)C(=O)O[C@@H]1C | µg/mL | 16 |

Query string: Fill in the blank: the reported MIC of CCCCCCCCCCC(=O)N[C@@H](Cc1ccccc1)C(=O)N[C@@H](Cc1c[nH]c2ccccc12)C(=O)N[C@H](CC(N)=O)C(=O)N[C@@H](CC(=O)O)C(=O)N[C@@H]1C(=O)NCC(=O)N[C@@H](CCCN)C(=O)N[C@@H](CC(=O)O)C(=O)N[C@H](C)C(=O)N[C@@H](CC(=O)O)C(=O)NCC(=O)N[C@H](CO)C(=O)N[C@@H]([C@H](C)CC(=O)O)C(=O)N[C@@H](CC(=O)c2ccccc2N)C(=O)O[C@@H]1C is ____.
Result string: 4
